tested on: VIM-2-transformed E. coli growth with imipenem, MIC; experiment: MIC of VIM-2 E. coli under carbapenem – VIM-2-transformed E. coli, imipenem co-treatment, counter-screen for IMP-1 and VIM-2 inhibitor project, late-stage follow-up (AID 463100)
measured.quantity: MIC

[Hg+][c]1ccccc1 0.625 µM

Task: Determine reported MIC for Cc1cc[c]([Hg+])cc1 ; test system: VIM-2-transformed E. coli growth with imipenem, MIC.
Output: 0.651 µM

Task: Answer with MIC of COc1cccc[c]1[Hg+] measured for VIM-2-transformed E. coli growth with imipenem, MIC.
Output: 0.781 µM

Task: Give MIC; test system VIM-2-transformed E. coli growth with imipenem, MIC; compound CC(=O)Nc1cc[c]([Hg+])cc1
Output: 2.5 µM

Task: State the measured MIC (VIM-2-transformed E. coli growth with imipenem, MIC) of O=C(O)c1ccc[c]([Hg+])c1
Output: 2.08 µM

Task: Given O=C(O)c1cc[c]([Hg][Cl])cc1 , report its MIC on VIM-2-transformed E. coli growth with imipenem, MIC.
Output: 9.37 µM
